# System: Setaria faberi
# method: Pre-emergence herbicidal activity, SETFA
# Type: in vivo
# condition-info: 1000 g/Ha, sprayed pre-emergence, evaluated after 13 days, scale 0-5
# Procedure: Seeds of a variety of test species were sown in standard soil in pots. […] After 13 days, the test was evaluated (5=total damage to plant; 0=no damage to plant).
For each entry below, report its SETFA damage score, application pre-emergence value.
Answer as a number with no unit attached.

Enquiry: With Setaria faberi as the test system, provide measured SETFA damage score, application pre-emergence for this compound: CC1NC(=O)N(c2cc(C(C)(C)C)ncn2)C1O (centres unmarked)
Return: 1

Enquiry: Find SETFA damage score, application pre-emergence for CCCOC1C(OCCC)N(c2cc(C(C)(C)C)ncn2)C(=O)N1C (centres unmarked) on Setaria faberi and write it down.
Return: 0

Enquiry: Look up Setaria faberi data: SETFA damage score, application pre-emergence of CON1C(=O)N(c2cc(C(C)(C)C)ncn2)C(O)C1C (centres unmarked) , then report it.
Return: 5

Enquiry: State the measured SETFA damage score, application pre-emergence (Setaria faberi) of CON1C(=O)N(c2cc(C(C)(C)C)ncn2)C(O)C1O (centres unmarked)
Return: 1

Enquiry: State measured SETFA damage score, application pre-emergence of the compound CCC1C(O)N(c2cc(C(C)(C)C)ncn2)C(=O)N1C (centres unmarked) with Setaria faberi.
Return: 5

###

# Test system: Zea mays
# method: Pre-emergence herbicidal activity, ZEAMX
# Type: in vivo
# Parameters: key: 5=total damage to plant; 0=no damage to plant
# condition-info: 1000 g/Ha, sprayed pre-emergence, evaluated after 13 days, scale 0-5
Output true for ZEAMX damage score, application pre-emergence not less than 2; output false otherwise.

Enquiry: Exam item: decide whether the reported ZEAMX damage score, application pre-emergence for CN1C(=O)N(c2cc(C(C)(C)C)ncn2)C(O)C1C(F)(F)F (stereo not shown) [Example A31] is at least 2.
Return: false

Enquiry: Tell me whether ZEAMX damage score, application pre-emergence is at least 2 here: COC1C(O)N(c2cc(C(C)(C)C)ncn2)C(=O)N1OC (stereo not shown) [Example A7]
Return: true

Enquiry: Hello, I need to know if CC1C(O)N(c2cc(C(C)(C)F)ncn2)C(=O)N1C (stereo not shown) [Example A20] has measured ZEAMX damage score, application pre-emergence not below 2. Thanks!
Return: true

Enquiry: Is ZEAMX damage score, application pre-emergence for CN1CC(O)N(c2cc(C(C)(C)C#N)ncn2)C1=O (stereo not shown) [Example A2] at or above 2?
Return: true

Enquiry: Is ZEAMX damage score, application pre-emergence for CCOC1C(O)N(c2cc(C(C)(C)C)ncn2)C(=O)N1OC (stereo not shown) [Example A8] at or above 2?
Return: false

Enquiry: Hi team, for CCC1C(O)N(c2cc(C(C)(C)C)ncn2)C(=O)N1OC (stereo not shown) [Example A19] , is the recorded ZEAMX damage score, application pre-emergence at or above 2?
Return: true

Enquiry: ZEAMX damage score, application pre-emergence >= 2 for C=CC1C(O)N(c2cc(C(C)(C)C)ncn2)C(=O)N1C (stereo not shown) [Example A29] ?
Return: false

Enquiry: Evaluate CON1C(=O)N(c2cc(C(C)(C)C#N)ncn2)C(O)C1C (stereo not shown) [Example A25] : ZEAMX damage score, application pre-emergence at minimum 2?
Return: true

Enquiry: Check this compound for ZEAMX damage score, application pre-emergence at or above 2: C=CCC1C(O)N(c2cc(C(C)(C)C)ncn2)C(=O)N1C (single isomer, unassigned) [Example A33]
Return: true

Enquiry: Is it the case that COC1C(O)N(c2cc(C(C)(C)C)ncn2)C(=O)N1C (stereo not shown) [Example A11] has ZEAMX damage score, application pre-emergence reaching or exceeding 2?
Return: false

Enquiry: Evaluate CC1C(OC(=O)Nc2ccc([N+](=O)[O-])cc2)N(c2cc(C(C)(C)C)ncn2)C(=O)N1C (stereo not shown) [Example A36] : ZEAMX damage score, application pre-emergence at minimum 2?
Return: true

###

Assignment: determine reported SETFA damage score, application pre-emergence for the given compounds.
# Test system: Setaria faberi
# method: Pre-emergence herbicidal activity, SETFA
# Assay type: in vivo
# Parameters: key: 5=total damage to plant; 0=no damage to plant
# condition-info: 1000 g/Ha, sprayed pre-emergence, evaluated after 13 days, scale 0-5

Enquiry: Provide measured SETFA damage score, application pre-emergence value, entry: CC1C(O)N(c2cc(C(C)(C)C#N)ncn2)C(=O)N1C (centres unmarked)
Return: 5

Enquiry: State its SETFA damage score, application pre-emergence for this compound: CN1CC(O)N(c2cc(C(C)(C)CCl)ncn2)C1=O (centres unmarked)
Return: 5

Enquiry: Please report SETFA damage score, application pre-emergence for the following compound: CN1CC(O)N(c2cc(C(C)(C)C)ncn2)C1=O (centres unmarked)
Return: 5

Enquiry: Please report the measured SETFA damage score, application pre-emergence for CON1C(=O)N(c2cc(C(C)(C)F)ncn2)C(O)C1C (centres unmarked)
Return: 5

Enquiry: Respond only with SETFA damage score, application pre-emergence recorded for COCC1NC(=O)N(c2cc(C(C)(C)C)ncn2)C1O (centres unmarked)
Return: 4

###

# System: Zea mays
# method: Pre-emergence herbicidal activity, ZEAMX
# Assay type: in vivo
# condition-info: 1000 g/Ha, sprayed pre-emergence, evaluated after 13 days, scale 0-5
measured-quantity: ZEAMX damage score, application pre-emergence
API doc: respond with a numeric literal and nothing else, no unit.

Enquiry: Provide measured ZEAMX damage score, application pre-emergence on Zea mays for CC1C(O)N(c2cc(C(C)(C)C)ncn2)C(=O)N1C (stereo not shown) [Example A3] please.
Return: 2

Enquiry: Identify measured ZEAMX damage score, application pre-emergence obtained with Zea mays for CC1NC(=O)N(c2cc(C(C)(C)C)ncn2)C1O (stereo not shown) [Example A32] .
Return: 0

Enquiry: Answer briefly: ZEAMX damage score, application pre-emergence recorded on Zea mays for CN1C(=O)N(c2cc(C(C)(C)C)ncn2)C(O)C1CC(F)(F)F (stereo not shown) [Example A34]
Return: 0

Enquiry: Give Zea mays ZEAMX damage score, application pre-emergence for the following compound: CN1CC(O)N(c2cc(C(F)(F)Cl)ncn2)C1=O (stereo not shown) [Example A39]
Return: 2

Enquiry: Name the recorded ZEAMX damage score, application pre-emergence of CCOC1C(O)N(c2cc(C(C)(C)C)ncn2)C(=O)N1CC (stereo not shown) [Example A27] , assay system Zea mays.
Return: 0

Enquiry: Fill in ZEAMX damage score, application pre-emergence for CCO[C@@H]1C(O)N(c2cc(C(C)(C)F)ncn2)C(=O)N1C (stereo partly shown) [Example A38] tested with Zea mays.
Return: 2

Enquiry: Under Zea mays, report ZEAMX damage score, application pre-emergence for CON1C(=O)N(c2cc(C(C)(C)F)ncn2)C(O)C1C (stereo not shown) [Example A21]
Return: 3

Enquiry: Fetch value of ZEAMX damage score, application pre-emergence on Zea mays for CC1C(O)N(c2cc(C(C)(C)C#N)ncn2)C(=O)N1C (stereo not shown) [Example A24] .
Return: 2

Enquiry: Provide ZEAMX damage score, application pre-emergence, recorded with Zea mays, of CON1CC(O)N(c2cc(C(C)(C)C)ncn2)C1=O (stereo not shown) [Example A23]
Return: 1

Enquiry: State ZEAMX damage score, application pre-emergence on Zea mays. Entry: CCN1C(=O)N(c2cc(C(C)(C)C)ncn2)C(O)C1OC (stereo not shown) [Example A26]
Return: 1

###

Give measured SETFA damage score, application pre-emergence for each item. Keep answers brief.
# Test system: Setaria faberi
# method: Pre-emergence herbicidal activity, SETFA
# Assay type: in vivo
# condition-info: 1000 g/Ha, sprayed pre-emergence, evaluated after 13 days, scale 0-5

Enquiry: Return value of SETFA damage score, application pre-emergence for input C=CC1C(O)N(c2cc(C(C)(C)C)ncn2)C(=O)N1C (centres unmarked) , no commentary.
Return: 4

Enquiry: Specify measured SETFA damage score, application pre-emergence for CN1C(=O)N(c2cc(C(C)(C)C)ncn2)C(O)C1CC(F)(F)F (centres unmarked) .
Return: 2

Enquiry: Given CCCC1C(O)N(c2cc(C(C)(C)C)ncn2)C(=O)N1C (centres unmarked) , respond with its SETFA damage score, application pre-emergence.
Return: 5

Enquiry: Respond only with SETFA damage score, application pre-emergence recorded for CCCOC1C(O)N(c2cc(C(C)(C)C)ncn2)C(=O)N1C (centres unmarked)
Return: 4

Enquiry: In one line, give reported SETFA damage score, application pre-emergence of the entry CN1CC(O)N(c2cc(C(C)(C)F)ncn2)C1=O (centres unmarked) .
Return: 5

###

# System: Setaria faberi
# method: Pre-emergence herbicidal activity, SETFA
# Assay type: in vivo
# condition-info: 1000 g/Ha, sprayed pre-emergence, evaluated after 13 days, scale 0-5
For each entry below, report its SETFA damage score, application pre-emergence value.
Give a plain numeric answer without units written out.

Enquiry: # return SETFA damage score, application pre-emergence for CON1CC(O)N(c2cc(C(C)(C)C)ncn2)C1=O (stereo not drawn) , test system: Setaria faberi
Return: 2

Enquiry: State the measured SETFA damage score, application pre-emergence (Setaria faberi) of CCC1C(O)N(c2cc(C(C)(C)C)ncn2)C(=O)N1OC (stereo not drawn)
Return: 5

Enquiry: Please report the measured SETFA damage score, application pre-emergence for CC1C(OC(=O)Nc2ccc([N+](=O)[O-])cc2)N(c2cc(C(C)(C)C)ncn2)C(=O)N1C (stereo not drawn) tested on Setaria faberi.
Return: 4

Enquiry: Give SETFA damage score, application pre-emergence for this entry on Setaria faberi: CN1CC(O)N(c2cc(C(F)(F)Cl)ncn2)C1=O (stereo not drawn)
Return: 5

Enquiry: Give SETFA damage score, application pre-emergence for CCOC1C(O)N(c2cc(C(C)(C)C)ncn2)C(=O)N1CC (stereo not drawn) tested on Setaria faberi.
Return: 0

Enquiry: Write SETFA damage score, application pre-emergence of CN1CC(O)N(c2cc(C(C)(C)C#N)ncn2)C1=O (stereo not drawn) ; system used: Setaria faberi
Return: 5

Enquiry: Fill in: SETFA damage score, application pre-emergence on Setaria faberi, entry CCN1C(=O)N(c2cc(C(C)(C)C)ncn2)C(O)C1OC (stereo not drawn)
Return: 0

Enquiry: Report value only: SETFA damage score, application pre-emergence, Setaria faberi, CCOC1C(O)N(c2cc(C(C)(C)C#N)ncn2)C(=O)N1C (stereo not drawn)
Return: 4

Enquiry: // fetch SETFA damage score, application pre-emergence for CN1C(=O)N(c2cc(C(C)(C)C)ncn2)C(O)C1O (stereo not drawn) ; system: Setaria faberi
Return: 2
